- System: Locomotor Activity in Mice
- ASSAY_INFO: Inhibition of locomotor activity in mice
- Assay type: in vivo
- CONDITION: IP
PROPERTY_LABEL: Inhibition of Locomotor Activity in Mice ED50 (mg/kg)
Value expressed in mg/kg; do not type the unit.

The measured Inhibition of Locomotor Activity in Mice ED50 associated with OC1(c2cccnc2)CCC(N2CCN(c3ccccn3)CC2)CC1 (stereo not drawn) [Example 22] reads 30

The measured Inhibition of Locomotor Activity in Mice ED50 associated with COc1ccc(C2(O)CCC(CCN3CCN(c4ccccn4)CC3)CC2)cc1 (stereo not drawn) [Example 8] reads 0.9

The measured Inhibition of Locomotor Activity in Mice ED50 associated with OC1(c2cccs2)CCC(CCN2CCN(c3ccccn3)CC2)CC1 (stereo not drawn) reads 1.1

The measured Inhibition of Locomotor Activity in Mice ED50 associated with OC1(c2cccnc2)CCC(N2CCN(c3ccccn3)CC2)CC1 (stereo not drawn) [Example 23] reads 1.6

The measured Inhibition of Locomotor Activity in Mice ED50 associated with OC1(c2cccnc2)CCC(N2CC=C(c3ccccc3)CC2)CC1 (stereo not drawn) [Example 30] reads 1.3

The measured Inhibition of Locomotor Activity in Mice ED50 associated with OC1(c2ccc(Cl)cc2)CCC(N2CCN(c3ccccn3)CC2)CC1 (stereo not drawn) [Example 1] reads 2.3

The measured Inhibition of Locomotor Activity in Mice ED50 associated with OC1(c2ccc(Cl)cc2)CCC(N2CCN(c3ccccn3)CC2)CC1 (stereo not drawn) [Example 1a] reads 0.86

====

- Test system: Locomotor Activity in Mice
- ASSAY_INFO: Inhibition of locomotor activity in mice
- Format: in vivo
- CONDITION: IP
PROPERTY_LABEL: Inhibition of Locomotor Activity in Mice ED50 (mg/kg)
Value expressed in mg/kg; do not type the unit.

The measured Inhibition of Locomotor Activity in Mice ED50 associated with OC1(c2ccccn2)CCC(N2CCN(c3ncccn3)CC2)CC1 (centres unmarked) [Example 19] reads 13.0

The measured Inhibition of Locomotor Activity in Mice ED50 associated with COc1ccc(C2(O)CCC(CCN3CCN(c4ccccn4)CC3)CC2)cc1 (centres unmarked) [Example 15] reads 0.3

The measured Inhibition of Locomotor Activity in Mice ED50 associated with OC1(c2cccs2)CCC(CN2CCN(c3ccccn3)CC2)CC1 (centres unmarked) reads 5.2

The measured Inhibition of Locomotor Activity in Mice ED50 associated with OC1(c2ccccn2)CCC(N2CCN(c3ccccn3)CC2)CC1 (centres unmarked) [Example 21] reads 2.3

The measured Inhibition of Locomotor Activity in Mice ED50 associated with OC1(c2cccnc2)CCC(N2CC=C(c3ccccc3)CC2)CC1 (centres unmarked) [Example 29] reads 25.6

====

- TGT: [^3 H]-Spiroperidol Binding (Homo sapiens)
- Construct: receptor assay described by D. Grigoriadis and P. Seeman, Journal of Neurochemistry, Volume 44, pages 1925-1935 (1985); from tissue
- ASSAY_INFO: Inhibition of [^3 H]-spiroperidol binding in a receptor assay
- CONDITION: Inhibition of [^3 H]-Spiroperidol Binding IC50
PROPERTY_LABEL: pIC50
The read-out pIC50 is expressed as -log10 of concentration in moles per litre.

The measured pIC50 associated with O=C(N[C@H]1CC[C@H](N2CC=C(c3ccccc3)CC2)CC1)c1ccsc1 reads 7.05

The measured pIC50 associated with O=C(N[C@H]1CC[C@H](CCN2CC=C(c3ccccc3)CC2)CC1)c1ccccc1 reads 7.00

The measured pIC50 associated with OC1(c2cccs2)CCC(CCN2CC=C(c3ccccc3)CC2)CC1 (stereo not drawn) reads 7.29

====

- TGT: [^3 H]-Spiroperidol Binding (Homo sapiens)
- Construct: receptor assay described by D. Grigoriadis and P. Seeman, Journal of Neurochemistry, Volume 44, pages 1925-1935 (1985); from tissue
- ASSAY_INFO: Inhibition of [^3 H]-spiroperidol binding in a receptor assay
- CONDITION: read-out: Inhibition of [^3 H]-Spiroperidol Binding IC50
Record form. Attribute: pIC50. Fill in for each entry.
The read-out pIC50 is expressed as -log10 of concentration in moles per litre.

The measured pIC50 associated with O=C(N[C@H]1CC[C@H](N2CCN(c3ccccn3)CC2)CC1)c1cccs1 reads 5.60

The measured pIC50 associated with CN(C(=O)c1ccccc1)[C@H]1CC[C@H](N2CCN(c3ccccn3)CC2)CC1 reads 5.32

The measured pIC50 associated with COc1ccccc1C(=O)N[C@H]1CC[C@H](N2CCN(c3ccccn3)CC2)CC1 reads 6.28

The measured pIC50 associated with O=C(N[C@H]1CC[C@@H](CCN2CCN(c3ccccn3)CC2)CC1)c1ccccc1 reads 5.48

====

- TGT: [^3 H]-Spiroperidol Binding (Homo sapiens, UniProt P14416)
- Construct: receptor assay described by D. Grigoriadis and P. Seeman, Journal of Neurochemistry, Volume 44, pages 1925-1935 (1985); from tissue
- Sequence (P14416 whole entry): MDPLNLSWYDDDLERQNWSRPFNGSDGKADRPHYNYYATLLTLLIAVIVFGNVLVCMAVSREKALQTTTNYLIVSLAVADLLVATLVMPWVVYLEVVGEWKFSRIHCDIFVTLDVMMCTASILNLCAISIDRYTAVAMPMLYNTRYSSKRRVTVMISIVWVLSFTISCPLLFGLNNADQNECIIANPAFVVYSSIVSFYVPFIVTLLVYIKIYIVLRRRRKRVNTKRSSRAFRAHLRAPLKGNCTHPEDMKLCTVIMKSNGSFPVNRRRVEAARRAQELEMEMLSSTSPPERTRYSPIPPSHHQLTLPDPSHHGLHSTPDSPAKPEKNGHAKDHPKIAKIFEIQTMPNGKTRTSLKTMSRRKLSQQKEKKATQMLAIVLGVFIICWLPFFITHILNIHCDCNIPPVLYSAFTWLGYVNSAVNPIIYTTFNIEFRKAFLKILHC
- ASSAY_INFO: Inhibition of [^3 H]-spiroperidol binding in a receptor assay
- CONDITION: read-out: Inhibition of [^3 H]-Spiroperidol Binding IC50
- Source text: The above test methods are incorporated herein by reference.
Lab note: compare IC50 with 2000 nM, writing fulfilled if less and not fulfilled if equal or more.

Quick check: does Cc1ccc(C(=O)N[C@H]2CC[C@H](CCN3CCN(c4ccccn4)CC3)CC2)cc1 have IC50 under 2000 nM? fulfilled

Quick check: does O=C(N[C@H]1CC[C@H](N2CCN(c3ccccn3)CC2)CC1)c1ccccc1 have IC50 under 2000 nM? not fulfilled

Quick check: does Cc1ccc(C(=O)N[C@H]2CC[C@@H](CCN3CCN(c4ccccn4)CC3)CC2)cc1 have IC50 under 2000 nM? fulfilled

Quick check: does O=C(N[C@H]1CC[C@@H](CCN2CCN(c3ccccn3)CC2)CC1)c1ccc(Cl)cc1 have IC50 under 2000 nM? fulfilled

Quick check: does OC1(c2cccnc2)CCC(N2CC=C(c3ccccc3)CC2)CC1 (centres unmarked) have IC50 under 2000 nM? fulfilled

====

- TGT: [^3 H]-Spiroperidol Binding (Homo sapiens)
- Construct: receptor assay described by D. Grigoriadis and P. Seeman, Journal of Neurochemistry, Volume 44, pages 1925-1935 (1985); from tissue
- ASSAY_INFO: Inhibition of [^3 H]-spiroperidol binding in a receptor assay
- CONDITION: read-out: Inhibition of [^3 H]-Spiroperidol Binding IC50
PROPERTY_LABEL: pIC50
The read-out pIC50 is expressed as -log10 of concentration in moles per litre.

The measured pIC50 associated with OC1(c2ccc(Cl)cc2)CCC(N2CCN(c3ccccn3)CC2)CC1 (centres unmarked) [Example 1a] reads 6.09

The measured pIC50 associated with O=C(N[C@H]1CC[C@H](CCN2CCN(c3ccccn3)CC2)CC1)c1ccc(Cl)cc1 [Example 57] reads 6.21

The measured pIC50 associated with OC1(c2cccs2)CCC(CCN2CCN(c3ccccn3)CC2)CC1 (centres unmarked) [Example 3] reads 6.58

The measured pIC50 associated with O=C(N[C@H]1CC[C@H](CCN2CC=C(c3ccccc3)CC2)CC1)c1cccs1 [Example 71] reads 6.68

The measured pIC50 associated with OC1(c2ccc(Cl)cc2)CCC(N2CCN(c3ccccn3)CC2)CC1 (centres unmarked) [Example 1] reads 6.48

====

Record form. Attribute: pIC50. Fill in for each entry.
- TGT: [^3 H]-Spiroperidol Binding (Homo sapiens)
- Construct: receptor assay described by D. Grigoriadis and P. Seeman, Journal of Neurochemistry, Volume 44, pages 1925-1935 (1985); from tissue
- ASSAY_INFO: Inhibition of [^3 H]-spiroperidol binding in a receptor assay
- CONDITION: read-out: Inhibition of [^3 H]-Spiroperidol Binding IC50
The read-out pIC50 is expressed as -log10 of concentration in moles per litre.

The measured pIC50 associated with OC1(c2cccnc2)CCC(N2CCN(c3ccccn3)CC2)CC1 (centres unmarked) [Example 23] reads 5.94

The measured pIC50 associated with O=C(N[C@H]1CC[C@H](CCN2CCN(c3ccccn3)CC2)CC1)c1ccccc1 [Example 52] reads 6.36

The measured pIC50 associated with O=C(N[C@H]1CC[C@H](N2CC=C(c3ccccc3)CC2)CC1)c1cccnc1 [Example 49] reads 6.22

The measured pIC50 associated with OC1(c2ccccn2)CCC(CCN2CCN(c3ccccn3)CC2)CC1 (centres unmarked) [Example 6] reads 5.98

The measured pIC50 associated with O=C(N[C@H]1CC[C@H](N2CC=C(c3ccccc3)CC2)CC1)c1cccs1 [Example 47] reads 6.52
